# System: Escherichia coli TOP10;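 further: peptides expressed intracellularly from a pBAD plasmid library in pooled LB shake-flask culture, induced with 0.3% L-arabinose, DNA abundance read by NGS, three biological replicates, DESeq2 with apeglm shrinkage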
# protocolText: shrunken log2 fold change of peptide-encoding DNA abundance (4.5 h post-induction vs induction); higher = less antimicrobial activity (less host growth inhibition)
# testSettings: time post-induction: 4.5 h; library: site-saturation at positions 5, 18, 19, 20
Measured shrunken log2 fold change, listed per entry.
propertyLabel: shrunken log2 fold change

1. RRIRVRPPRLPRPRPRPKIAPRP ... 0.0892
2. RRIRMRPPRLPRPRPRPPIIPRP ... -0.306
3. RRIRPRPPRLPRPRPRPGFAPRP ... 0.318
4. RRIRVRPPRLPRPRPRPNTMPRP ... -0.293
5. RRIRNRPPRLPRPRPRPSHPPRP ... 0.186
6. RRIRTRPPRLPRPRPRPCLAPRP ... -0.307
7. RRIRKRPPRLPRPRPRPNRTPRP ... -0.0227
8. RRIRTRPPRLPRPRPRPCSVPRP ... 0.0123
